# tgt: HLA-A*33:01
# assay_summary: IEDB peptide-MHC binding, purified MHC/competitive/radioactivity; filed as Kd, often an IC50 or EC50 that approximates it; bounds were set here for any values at or beyond the usual limits of such assays
# condition_summary: source organism: SARS coronavirus Tor2
// reported Kd for each item listed

sequence_string=MLAHAEETRK test_value="≥ 70 µM"

// sample ALLSTDGNK , its Kd was ≥ 77.7 µM

Recorded result, ATKIIALNK , Kd: ≥ 77.7 µM

For this sequence ( CVDIPGIPK ), measured Kd is ≥ 37.9 µM

Reported Kd of TQVLKTMSLY : ≥ 27.6 µM

Per the records, this sequence ( PQVGGLTSIK ) has Kd equal to ≥ 70 µM

----------
Catalogue of pIC50 values
# tgt: HLA-B*07:02
# assay_summary: IEDB peptide-MHC binding, purified MHC/competitive/fluorescence; bounds were set here for any values at or beyond the usual limits of such assays
# condition_summary: source organism: Zaire ebolavirus
pIC50: −log10 of the molar value.

Below: 2 sequences and their reported pIC50.
sequence_string=VATAHGSTL test_value="≤ 4.15"
sequence_string=RTRREAIVN test_value="≤ 4.03"

Item: KIRSEELSF | pIC50: ≤ 3.76

----------
The entries below come with measured pKd values attached.
# tgt: HLA-A*02:02
# assay_summary: IEDB peptide-MHC binding, purified MHC/competitive/radioactivity; filed as Kd, often an IC50 or EC50 that approximates it; bounds were set here for any values at or beyond the usual limits of such assays
# condition_summary: source organism: Vaccinia virus WR
pKd: −log10 of the molar value.

Worked cases, pKd given:
sequence_string=EIITGNKVKT tgt=HLA-A*02:02 test_value="≤ 4.15"
sequence_string=DIVSDSKKIM tgt=HLA-A*02:02 test_value="≤ 4.60"
sequence_string=VASDVCKKNL tgt=HLA-A*02:02 test_value="≤ 4.29"
sequence_string=IVLFQRFLR tgt=HLA-A*02:02 test_value="≤ 4.27"

Here is another sequence to look at.
Summary line: NLCKYLRGHT , HLA-A*02:02, reported pKd = ≤ 4.40

----------
# tgt: HLA-B*08:01
# assay_summary: IEDB peptide-MHC binding, purified MHC/competitive/radioactivity; filed as Kd, often an IC50 or EC50 that approximates it; bounds were set here for any values at or beyond the usual limits of such assays
# condition_summary: source organism: Vaccinia virus WR
reported_endpoint: Kd (nM)
Report only the number, with the unit nM understood.

Solved entries:
sequence_string=RLQPNQPPK test_value=1010
sequence_string=LLKMPFRMV test_value=7.12
sequence_string=CPRKRKTVE test_value=581
sequence_string=FLKHKYGSL test_value=0.135
sequence_string=MLKLQKCVM test_value=9.25

Lookup result for MLMNHVANF ; measured Kd: 3.33

Item: SRRYRCSFA | Kd: 52.3

Kd reported for this sequence RNIARHLAL : 3.24

The value of Kd measured for the sequence FYRKKFRPL turned out to be 0.0879

Please fill in: Kd reported for LIGARRTSF = 1.5

The value of Kd measured for the sequence SSKVFLKAF turned out to be 728

Note to self: Kd recorded for SLKIMIQSM was 2.48

Form: sequence = LIRNKRLSL ; Kd = 0.783

----------
Kd values for the sequences below.
# tgt: HLA-A*02:06
# assay_summary: IEDB peptide-MHC binding, purified MHC/competitive/radioactivity; filed as Kd, often an IC50 or EC50 that approximates it; bounds were set here for any values at or beyond the usual limits of such assays
# condition_summary: source organism: Vaccinia virus WR
Number only, in µM; omit the unit.

Example cases with answers are listed next.
sequence_string=GVLHTKFWI test_value=0.417
sequence_string=DVKVLAARL test_value=9.99

Quick note, Kd for VLALYSPPLI landed at 0.868

----------
# tgt: HLA-B*07:02
# assay_summary: IEDB peptide-MHC binding, purified MHC/competitive/radioactivity; filed as Kd, often an IC50 or EC50 that approximates it; bounds were set here for any values at or beyond the usual limits of such assays
# condition_summary: source organism: Vaccinia virus WR
pKd: −log10 of the molar value.
reported_endpoint: pKd

Previously resolved entries follow.
sequence_string=IVLFQRFLR test_value="≤ 4.11"
sequence_string=LPESDLDKVY test_value="≤ 4.16"

Form: item YPDLNFDNTY ; test system HLA-B*07:02; pKd: ≤ 4.16

----------
# tgt: HLA-A*03:01
# assay_summary: IEDB peptide-MHC binding, purified MHC/competitive/radioactivity; filed as Kd, often an IC50 or EC50 that approximates it; bounds were set here for any values at or beyond the usual limits of such assays
# condition_summary: source organism: Vaccinia virus WR
We label by threshold. Values of Kd strictly beneath 0.3 µM are Yes. Values of 0.3 µM and up are No.

sequence_string=NATDFWRLY tgt=HLA-A*03:01 group=Yes
sequence_string=LTMKAIEKDR tgt=HLA-A*03:01 group=No
sequence_string=RIQRRDDVDR tgt=HLA-A*03:01 group=No

Is the reported Kd for WLSSKGLACY strictly below 0.3 µM?
No

# strict comparison: is reported Kd < 0.3 µM? input = SVIRLLIWAY
No

Just wondering, is Kd of FTDISMSLYK below 0.3 µM?
Yes

Decide: Kd of STRTIILVGY strictly below 0.3 µM?
Yes

hey, is Kd for AALFMYYAKR lower than 0.3 µM or not?
No

----------
Listing of recorded Kd by entry.
# tgt: HLA-A*23:01
# assay_summary: IEDB peptide-MHC binding, purified MHC/competitive/radioactivity; filed as Kd, often an IC50 or EC50 that approximates it; bounds were set here for any values at or beyond the usual limits of such assays
# condition_summary: source organism: SARS coronavirus Tor2

Take a look at these entries with their results.
sequence_string=EMVMCGGSLY reported_endpoint=Kd test_value="≥ 70 µM"
sequence_string=LYEQVVMDY reported_endpoint=Kd test_value="≥ 58.2 µM"

Next sequence, please.
Just so you know, measured Kd for TSQKSIVAY came out at ≥ 77.8 µM

----------
# tgt: HLA-A*02:06
# assay_summary: IEDB peptide-MHC binding, purified MHC/competitive/radioactivity; filed as Kd, often an IC50 or EC50 that approximates it; bounds were set here for any values at or beyond the usual limits of such assays
# condition_summary: source organism: Vaccinia virus WR
pKd: −log10 of the molar value.
reported_endpoint: pKd

sequence_string=AAAKTPVIV tgt=HLA-A*02:06 reported_endpoint=pKd test_value="≤ 4.18"
sequence_string=EAFETQSGA tgt=HLA-A*02:06 reported_endpoint=pKd test_value="≤ 4.30"

Turning to the following sequence.
Per the records, this sequence ( NLCKYLRGHT ) has pKd equal to ≤ 4.16

----------
Consider the following sequences and their measured pKd readings.
# tgt: HLA-A*33:01
# assay_summary: IEDB peptide-MHC binding, purified MHC/competitive/radioactivity; filed as Kd, often an IC50 or EC50 that approximates it; bounds were set here for any values at or beyond the usual limits of such assays
# condition_summary: source organism: Vaccinia virus WR
Keep in mind that pKd stands for -log10 of concentration in molar terms.

The examples below pair each entry with its known result.
sequence_string=SVIRLLIWAY test_value=4.75
sequence_string=NTRQLKLLEY test_value=4.97
sequence_string=NFMVSVSDFR test_value=7.48
sequence_string=IVLFQRFLR test_value=8.62
sequence_string=STRTIILVGY test_value=5.10
sequence_string=DSIPISELSR test_value=7.59
sequence_string=DLIVTFRER test_value=7.83
sequence_string=KTDFKVVKK test_value=5.92
sequence_string=YLRNYMVIK test_value=6.03
sequence_string=NVIEDITFLR test_value=7.90

Proceed to the following item.
// sample VSYEVFDDY , its pKd was 4.72

----------
Parameter: pKd. Scope: all listed entries.
# tgt: HLA-A*31:01
# assay_summary: IEDB peptide-MHC binding, purified MHC/competitive/radioactivity; filed as Kd, often an IC50 or EC50 that approximates it; bounds were set here for any values at or beyond the usual limits of such assays
# condition_summary: source organism: Vaccinia virus WR
pKd: −log10 of the molar value.

sequence_string=YVKNGTKGK tgt=HLA-A*31:01 test_value="≤ 4.14"
sequence_string=LTIKDSSNK tgt=HLA-A*31:01 test_value="≤ 4.46"
sequence_string=SIHLTKTDKK tgt=HLA-A*31:01 test_value="≤ 4.66"
sequence_string=EIITGNKVK tgt=HLA-A*31:01 test_value="≤ 4.11"

We next turn to a different sequence, shown below.
GET /value?item= AITPTIEDDK &field=pKd returns ≤ 4.32

----------
Each record here notes measured pKd.
# tgt: HLA-B*18:01
# assay_summary: IEDB peptide-MHC binding, purified MHC/competitive/radioactivity; filed as Kd, often an IC50 or EC50 that approximates it; bounds were set here for any values at or beyond the usual limits of such assays
# condition_summary: source organism: SARS coronavirus Tor2
pKd: −log10 of the molar value.

Examples with their reported pKd follow.
sequence_string=AEMDGIQYG tgt=HLA-B*18:01 test_value="≤ 4.11"
sequence_string=KEGFFTYLCG tgt=HLA-B*18:01 test_value="≤ 4.15"

Would you kindly look at the next entry?
Readout pKd for YECLYRNRDV , test system HLA-B*18:01, was ≤ 4.15
